Catalogue of proteins with associated Enzyme Activity Endpoint Assay (purified): IgG
Target: pooled human IgG
Give the value, in units of ng/µL, as a plain number.

IN: Using the record for PRT-232 (protein) MEVVEVWPYGQNPNGKTEILSQTEDSESLQRLRDIEDFQAEKKMQNVVYTKWLDGVDVKDHDFRKIVDGNIAYYATPLLNGRGFYDINKDFNRDSDKCAAAVAANMFHYWLDINRDNVDRFLRQNPEKHGIIELPDGQLKLSDFLNTYESDHGYRDKSKLFDFISNNFNGPVWTDKLLDNYINGYAYNYKYGRTIEDPTKNTSKINFFKEVFNEKILTNNHSIRNQNEFSVLLSEALYTGKAIGLSYGPAGLRHSLGHIISVWGADLDADGNVVAIYVTDSDDKKLTIGDERVGLKRYKISTDDENRLRLTAYEETHNTGGQIRGLWTLDTGKEAWADYFDKTEQTGTDQAEQLEHHHHHH , report its Enzyme Activity Endpoint Assay (purified): IgG.
OUT: 624

IN: Using the record for PRT-563 (protein) MANQEIRYSEATPSHITSVWTKGVTPPTQFIQNEDVLHAPYIANQGWYDITKTFNGKDDLLCGAATAGNMLHWWFDQNKTQIENYLKKHPEKQKINFNGEQMFDVKEAIDTKDSQTDSALFSYFKDKAFPYLSTKHLGVFPDHVIDMFINGYRLSLTNHGPTPVKRQTKDPRGGIFDAVFTRGDQSKLLTARHDFKEKTLNEISQLIKQELTEGKALGLSHTYANVRINHVINLWGADFNAEGNLEAIYVTDSDSNASIGMKKYYVGVNAAGKVAISAKEIEGDNIGAQVLGLFTLSTGQDIWQQTNLEHHHHHH , report its Enzyme Activity Endpoint Assay (purified): IgG.
OUT: 0

IN: Using the record for PRT-154 (protein) MANQEIRYSEVTPYHVTSVWTKGVTPPANFTQGEDVFHAPYVANQGWYDITKTFNGKDDLLCGAATAGNMLHWWFDQNKTQIEAYLKKHPEKQKINFNGEQMFDVKEAIDTKNHQLDSKLFEYFKEKAFPYLSTKHLGVFPDHVIDMFINGYRLSLTNHGPTPVKEGSKDPRGGIFDAVFTRGDQSKLLTSRHDFKEKNLKEISDLIKKELTEGKALGLSHTYANVRINHVINLWGADFDSNGNLKAIYVTDSDSNASIGMKKYFVGVNSAGKVAISAKEIKEDNIGAQVLGLFTLSTGKKSWEKTN , report its Enzyme Activity Endpoint Assay (purified): IgG.
OUT: 0

IN: Using the record for PRT-230 (protein) MEVVEVWPYGQNPNGKTEILSQTEDSESLQRLRDIEDFQAEKKMQNVVYTKWLDGVDVKDHDFRKIVDGNIAYYATPLLNGRGFYDINKDFNRDSDKCAAAVAANMFHYWLDINRDNVDRFLRQNPEKHGIIELPDGQLKLSDFLNTYESDNGYRDKSKLFDFISNNFNGPVWTDKLLDNYINGYAYNYKYGRTIEDPTKNTSKINFFKEVFNEKILTNNHSIRNQNEFSVLLSEALYTGKAIGLSYGPAGLRHSLGHIISVWGADLDADGNVVAIYVTDSDDKKLTIGDERVGLKRYKISTDDENRLRLTAYEETHNTGGQIRGLWTLDTGKYAWADYFDKTEQTGTDQAEQLEHHHHHH , report its Enzyme Activity Endpoint Assay (purified): IgG.
OUT: 513

IN: Using the record for PRT-165 (protein) MANQEIRYSEVTPYHVTSVWTKGVTPPANFTQGEDVFHAPYVANQGWYDITKTFNGGDDLLCGAATAGNMLHWWFDQNKDQIKRYLEEHPEKQKINFNGEQMFDVKEAIDTKNSQTNSELFNYFKEKAFPYLSTKHLGVFPDHVIDMFINGYRLSLTNHGPTPVKEGSKDPRGGIFDAVFTRGDQSKLLTSRHDFKEKNLKEISDLIKKELTEGKALGLSHTYANVRINHVINLWGADFDSNGNLKAIYVTDSDSNASIGMKKYFVGVNSAGKVAISAKEIKEDNIGAQVLGLFTLSTGQDSWNQTN , report its Enzyme Activity Endpoint Assay (purified): IgG.
OUT: 0

IN: Using the record for PRT-117 (protein) MRNATEAYAKEVPHTITSVWTKGVTPPTPEQFTYQNEDVFHAPYLANQGWYDITKTFNGKDNLLCGAATAGNMLHWWFDQNKEEIERYLSKHPEKQKIIFNNQELFDLKAAIDTKDSQTNSALFNYFRDKAFPNLSARQLGVMPDLVLDMFINGYYLNVFKTQSTDVNRPYQDKDKRGGIFDAVFTRGDQTTLLTARHDLKNKGLNDISDLIKQELTEGKALALSHTYANVSISHVINLWGADFNAEGNLEAIYVTDSDANASIGMKKYFVGVNTAGKVAISAKKIEGENIGAQVLGLFTLSSGKDIWEQLS , report its Enzyme Activity Endpoint Assay (purified): IgG.
OUT: 0

IN: Using the record for PRT-127 (protein) MRNATEAYAKEVPHQITSVWTKGVTPLTPEQFRYNNEDVIHAPYLANQGWYDITKTFNGKDNLLCGAATAGNMLHWWFDQNKTEIEAYLKKHPEKQKIIFNNQELFDLKAAIDTKDSQTNSQLFNYFRDKAFPNLSARQLGVMPDLVLDMFINGYYLNVFKTQSTDVNRPYQDKDKRGGIFDAVFTRGDQTTLLTARHDLKNKGLNEISTLIKQELTEGKALALSHTYANVSISHVINLWGADFNAEGNLEAIYVTDSDSNASIGMKKYFVGVNAHGKVAISAKKIEGENIGAQVLGLFTLSSGKDIWQKLS , report its Enzyme Activity Endpoint Assay (purified): IgG.
OUT: 0

IN: Using the record for PRT-164 (protein) MANQEIRYSEVTPYHVTSVWTKGVTPPANFTQGEDVFHAPYVANQGWYDITKTFNGKDDLLCGAATAGNMLHWWFDQNKDQIKRYLEEHPEKQKINFNGEQMFDVKEAIDTKNSQENSELFNYFKEKAFPYLSTKHLGVFPDHVIDMFINGYRLSLTNHGPTPVKEGSKDPRGGIFDAVFTRGDQSKLLTSRHDFKEKNLKEISDLIKKELTEGKALGLSHTYANVRINHVINLWGADFDSNGNLKAIYVTDSDSNASIGMKKYFVGVNSAGKVAISAKEIKEDNIGAQVLGLFTLSTGQDSWNQTN , report its Enzyme Activity Endpoint Assay (purified): IgG.
OUT: 0

Source listed as patent US20250027068.
